The measurements presented in this section are drawn from paper PMC2535826.

- experimentSummary: Plasma protein binding by equilibrium dialysis, rat plasma
- Type: in vitro ADME, Sprague Dawley rats
- experimentalConditions: Sprague Dawley, pH 7.4, MBX-102 acid 1500 μM, equilibrium dialysis vs PBS, 37°C, read-out: %Protein Binding ± SD (converted)
property: fraction unbound at 1500 µM

compound	property	observed
O=C(O)[C@H](Oc1cccc(C(F)(F)F)c1)c1ccc(Cl)cc1 (stereo in doubt)	fraction unbound at 1500 µM	0.002

====

- experimentSummary: Plasma protein binding by equilibrium dialysis, human plasma
- Type: in vitro ADME
- experimentalConditions: pH 7.4, MBX-102 acid 1000 μM, equilibrium dialysis vs PBS, 37°C, read-out: %Protein Binding ± SD (converted)
- Protocol: Radiolabeled MBX-102 acid was prepared as a 1 mL ethanol solution at a concentration of 50 μM (1 mCi total). […] Final solvent concentrations were 1% of the total volume. Plasma was stored at −20°C. Prior to use, it was thawed and spun at approximately 2000 rpm for 5 minutes to remove any precipitated material. The pH was adjusted to pH 7.4 by careful addition of NaH2PO4. […] Once equilibrium was established, the contents of the cell chambers were removed and analyzed by liquid scintillation counting. […]

compound	fraction unbound at 1000 µM
O=C(O)[C@H](Oc1cccc(C(F)(F)F)c1)c1ccc(Cl)cc1 (stereo in doubt)	0.003

====

- measuredTarget: rat serum albumin (Rattus norvegicus)
- Construct: purchased Sigma
- Sequence (P02770 25-608): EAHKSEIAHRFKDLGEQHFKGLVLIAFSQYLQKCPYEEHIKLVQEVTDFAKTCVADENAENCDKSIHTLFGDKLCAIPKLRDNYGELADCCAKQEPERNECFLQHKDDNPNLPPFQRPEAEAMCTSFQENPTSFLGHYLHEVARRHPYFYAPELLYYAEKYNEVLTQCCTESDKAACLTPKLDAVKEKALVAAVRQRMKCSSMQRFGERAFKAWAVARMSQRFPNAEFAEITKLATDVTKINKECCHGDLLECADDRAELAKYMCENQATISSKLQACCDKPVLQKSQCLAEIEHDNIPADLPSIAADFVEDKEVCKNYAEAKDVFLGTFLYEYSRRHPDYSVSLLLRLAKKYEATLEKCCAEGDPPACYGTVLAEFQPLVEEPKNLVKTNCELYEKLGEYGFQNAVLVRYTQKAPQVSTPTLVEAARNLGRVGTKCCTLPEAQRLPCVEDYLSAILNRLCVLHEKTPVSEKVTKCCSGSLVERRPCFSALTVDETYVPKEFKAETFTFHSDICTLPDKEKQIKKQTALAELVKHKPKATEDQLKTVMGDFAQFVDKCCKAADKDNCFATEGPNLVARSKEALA
- experimentSummary: Albumin binding by surface plasmon resonance (SPR), RSA
- experimentalConditions: rat, rat serum albumin immobilized on a CM5 sensor chip, pH 7.4, RSA, converted from KD; read-out: %Bound

molecule	fraction unbound
O=C(O)[C@H](Oc1cccc(C(F)(F)F)c1)c1ccc(Cl)cc1 (stereo in doubt) [MBX-102 acid]	< 0.02

====

- measuredTarget: human PPAR-γ ligand-binding domain (Homo sapiens, UniProt P37231)
- Construct: GST-PPARγ-LBD (5 nM), Tb-labeled anti-GST antibody (5 nM); purchased Invitrogen
- Sequence (P37231 238-503 limits assumed): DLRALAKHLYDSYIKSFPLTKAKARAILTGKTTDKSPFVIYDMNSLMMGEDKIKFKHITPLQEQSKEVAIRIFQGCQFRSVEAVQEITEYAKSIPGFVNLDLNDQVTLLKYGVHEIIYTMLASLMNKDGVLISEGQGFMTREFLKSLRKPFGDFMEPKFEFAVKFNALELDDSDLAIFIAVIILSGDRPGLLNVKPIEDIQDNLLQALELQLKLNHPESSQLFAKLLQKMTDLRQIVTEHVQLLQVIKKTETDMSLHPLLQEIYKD
- experimentSummary: Lanthascreen TR-FRET NCOR corepressor displacement assay
- Format: biochemical
- experimentalConditions: 10% (v/v) human serum, 3 experiments, mean ± SD; read-out: IC50 displacement of NCOR corepressor peptide
pIC50: −log10 of the molar value.

molecule	pIC50
O=C(O)[C@H](Oc1cccc(C(F)(F)F)c1)c1ccc(Cl)cc1 (stereo in doubt)	4.01

====

- measuredTarget: Gal 4-Mouse PPAR-γ LBD (Mus musculus, UniProt P37238)
- Construct: 5 μg Gal 4-Mouse PPAR-γ LBD; expressed in transfected cells; host or cells: HEK-293T
- Sequence (P37238 238-503 limits assumed): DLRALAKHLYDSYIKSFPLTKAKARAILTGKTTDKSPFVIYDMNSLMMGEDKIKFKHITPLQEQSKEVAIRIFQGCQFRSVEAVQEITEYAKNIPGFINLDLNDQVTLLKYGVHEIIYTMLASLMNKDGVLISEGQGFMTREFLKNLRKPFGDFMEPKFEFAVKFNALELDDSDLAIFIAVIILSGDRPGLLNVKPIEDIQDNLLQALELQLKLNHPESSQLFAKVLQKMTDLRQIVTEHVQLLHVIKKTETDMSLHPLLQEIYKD
- experimentSummary: PPAR-γ reporter gene (transactivation) assay in HEK-293T cells with serum or serum proteins
- Assay type: cell-based
- experimentalConditions: 0% serum (Figure 2), 3 experiments, mean ± SD; read-out: EC50 PPAR-γ activation
property: EC50 (µM)

compound	endpointUnit	observed
O=C(O)[C@H](Oc1cccc(C(F)(F)F)c1)c1ccc(Cl)cc1 (stereo in doubt)	µM	15.1

====

- experimentSummary: Plasma protein binding by equilibrium dialysis, mouse plasma
- Format: in vitro ADME, CD-1 mice
- experimentalConditions: CD-1, pH 7.4, MBX-102 acid 400 μM, equilibrium dialysis vs PBS, 37°C, read-out: %Protein Binding ± SD (converted)

compound	fraction unbound at 400 µM
O=C(O)[C@H](Oc1cccc(C(F)(F)F)c1)c1ccc(Cl)cc1 (stereo in doubt)	0.002

====

- experimentSummary: Plasma protein binding by equilibrium dialysis, mouse plasma
- Type: in vitro ADME, CD-1 mice
- experimentalConditions: CD-1, pH 7.4, MBX-102 acid 600 μM, equilibrium dialysis vs PBS, 37°C, read-out: %Protein Binding ± SD (converted)

compound	fraction unbound at 600 µM
O=C(O)[C@H](Oc1cccc(C(F)(F)F)c1)c1ccc(Cl)cc1 (stereo in doubt) [MBX-102 acid]	0.003

====

- experimentSummary: Plasma protein binding by equilibrium dialysis, human plasma
- Format: in vitro ADME
- experimentalConditions: pH 7.4, MBX-102 acid 600 μM, equilibrium dialysis vs PBS, 37°C, read-out: %Protein Binding ± SD (converted)
- Procedure: Radiolabeled MBX-102 acid was prepared as a 1 mL ethanol solution at a concentration of 50 μM (1 mCi total). […] Final solvent concentrations were 1% of the total volume. Plasma was stored at −20°C. Prior to use, it was thawed and spun at approximately 2000 rpm for 5 minutes to remove any precipitated material. The pH was adjusted to pH 7.4 by careful addition of NaH2PO4. […] Once equilibrium was established, the contents of the cell chambers were removed and analyzed by liquid scintillation counting. […]
property: fraction unbound at 600 µM

compound	property	observed
O=C(O)[C@H](Oc1cccc(C(F)(F)F)c1)c1ccc(Cl)cc1 (stereo in doubt) [MBX-102 acid]	fraction unbound at 600 µM	0.002

====

- experimentSummary: Plasma protein binding by equilibrium dialysis, mouse plasma
- Type: in vitro ADME, CD-1 mice
- experimentalConditions: CD-1, pH 7.4, MBX-102 acid 2000 μM, equilibrium dialysis vs PBS, 37°C, read-out: %Protein Binding ± SD (converted)
property: fraction unbound at 2000 µM

compound	observed
O=C(O)[C@H](Oc1cccc(C(F)(F)F)c1)c1ccc(Cl)cc1 (stereo in doubt)	0.005

====

- experimentSummary: Plasma protein binding by equilibrium dialysis, mouse plasma
- Assay type: in vitro ADME, CD-1 mice
- experimentalConditions: CD-1, pH 7.4, MBX-102 acid 1500 μM, equilibrium dialysis vs PBS, 37°C, read-out: %Protein Binding ± SD (converted)

molecule	fraction unbound at 1500 µM
O=C(O)[C@H](Oc1cccc(C(F)(F)F)c1)c1ccc(Cl)cc1 (stereo in doubt) [MBX-102 acid]	0.002

====

- measuredTarget: Gal 4-Mouse PPAR-γ LBD (Mus musculus, UniProt P37238)
- Construct: 5 μg Gal 4-Mouse PPAR-γ LBD; expressed in transfected cells; host or cells: HEK-293T
- experimentSummary: PPAR-γ reporter gene (transactivation) assay in HEK-293T cells with serum or serum proteins
- Type: cell-based
- experimentalConditions: 10% rat serum (Table 4, Figure 4), 3 experiments; read-out: Mean EC50 ± SD, Rat
property: EC50 (µM)

compound	endpointUnit	observed
O=C(O)[C@H](Oc1cccc(C(F)(F)F)c1)c1ccc(Cl)cc1 (stereo in doubt)	µM	196

====

- experimentSummary: Plasma protein binding by equilibrium dialysis, rat plasma
- Format: in vitro ADME, Sprague Dawley rats
- experimentalConditions: Sprague Dawley, pH 7.4, MBX-102 acid 1000 μM, equilibrium dialysis vs PBS, 37°C, read-out: %Protein Binding ± SD (converted)

compound	fraction unbound at 1000 µM
O=C(O)[C@H](Oc1cccc(C(F)(F)F)c1)c1ccc(Cl)cc1 (stereo in doubt)	0.003

====

- measuredTarget: human serum albumin (Homo sapiens, UniProt P02768)
- Sequence (P02768 25-609): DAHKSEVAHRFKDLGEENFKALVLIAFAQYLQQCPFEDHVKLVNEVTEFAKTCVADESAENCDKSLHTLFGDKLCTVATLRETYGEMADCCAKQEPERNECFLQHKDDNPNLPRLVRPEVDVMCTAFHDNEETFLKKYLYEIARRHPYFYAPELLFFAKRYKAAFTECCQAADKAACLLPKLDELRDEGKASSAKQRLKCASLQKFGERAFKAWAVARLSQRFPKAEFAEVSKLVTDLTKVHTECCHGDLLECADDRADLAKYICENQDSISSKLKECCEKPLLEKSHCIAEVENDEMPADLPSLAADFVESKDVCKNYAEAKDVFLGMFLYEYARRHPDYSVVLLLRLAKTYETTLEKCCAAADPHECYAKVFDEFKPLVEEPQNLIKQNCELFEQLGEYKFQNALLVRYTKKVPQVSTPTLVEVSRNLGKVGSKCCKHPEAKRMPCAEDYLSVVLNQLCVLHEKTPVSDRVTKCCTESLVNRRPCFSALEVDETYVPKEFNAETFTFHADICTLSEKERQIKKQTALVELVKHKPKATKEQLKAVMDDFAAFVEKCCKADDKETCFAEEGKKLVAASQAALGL
- experimentSummary: Albumin binding by surface plasmon resonance (SPR), HSA
- experimentalConditions: high-affinity site, two-independent-site model, 37°C, pH 7.4
- Method: The characterization of the binding of MBX-102 acid against human, mouse, and rat albumin was performed using SPR-based biosensors (Biosensor Tools, Salt Lake City, Utah, USA). […] The binding response profile of MBX-102 acid over the three different albumin surfaces was evaluated and the binding constants for the high-affinity site were determined using a two-independent-site model. […]
pKd: −log10 of the molar value.
property: pKd

molecule	measuredTarget	observed
O=C(O)[C@H](Oc1cccc(C(F)(F)F)c1)c1ccc(Cl)cc1 (stereo in doubt)	human serum albumin (Homo sapiens, UniProt P02768)	5.24

====

- measuredTarget: mouse serum albumin (Mus musculus, UniProt P07724)
- Sequence (P07724 25-608): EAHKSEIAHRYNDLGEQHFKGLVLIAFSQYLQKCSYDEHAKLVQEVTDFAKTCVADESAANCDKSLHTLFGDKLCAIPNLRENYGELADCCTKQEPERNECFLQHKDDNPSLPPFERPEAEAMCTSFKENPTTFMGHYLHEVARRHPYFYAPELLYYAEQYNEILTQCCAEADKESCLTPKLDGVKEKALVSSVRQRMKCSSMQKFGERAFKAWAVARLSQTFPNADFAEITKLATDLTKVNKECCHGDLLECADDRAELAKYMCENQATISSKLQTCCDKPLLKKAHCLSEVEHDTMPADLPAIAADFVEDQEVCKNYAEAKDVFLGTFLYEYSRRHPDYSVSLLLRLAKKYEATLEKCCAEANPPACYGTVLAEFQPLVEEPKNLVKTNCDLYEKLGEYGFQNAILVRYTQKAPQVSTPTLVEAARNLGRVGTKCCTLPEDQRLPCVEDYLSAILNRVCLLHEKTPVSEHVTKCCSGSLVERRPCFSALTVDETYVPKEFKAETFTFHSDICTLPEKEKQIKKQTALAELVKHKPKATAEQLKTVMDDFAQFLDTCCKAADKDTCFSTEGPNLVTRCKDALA
- experimentSummary: Albumin binding by surface plasmon resonance (SPR), MSA
- experimentalConditions: high-affinity site, two-independent-site model, 37°C, pH 7.4
pKd: −log10 of the molar value.

compound	pKd
O=C(O)[C@H](Oc1cccc(C(F)(F)F)c1)c1ccc(Cl)cc1 (stereo in doubt) [MBX-102 acid]	5.26
